Target: T1, human SLC34A2 (human, UniProt O95436 1-690)
T1 sequence (looked up): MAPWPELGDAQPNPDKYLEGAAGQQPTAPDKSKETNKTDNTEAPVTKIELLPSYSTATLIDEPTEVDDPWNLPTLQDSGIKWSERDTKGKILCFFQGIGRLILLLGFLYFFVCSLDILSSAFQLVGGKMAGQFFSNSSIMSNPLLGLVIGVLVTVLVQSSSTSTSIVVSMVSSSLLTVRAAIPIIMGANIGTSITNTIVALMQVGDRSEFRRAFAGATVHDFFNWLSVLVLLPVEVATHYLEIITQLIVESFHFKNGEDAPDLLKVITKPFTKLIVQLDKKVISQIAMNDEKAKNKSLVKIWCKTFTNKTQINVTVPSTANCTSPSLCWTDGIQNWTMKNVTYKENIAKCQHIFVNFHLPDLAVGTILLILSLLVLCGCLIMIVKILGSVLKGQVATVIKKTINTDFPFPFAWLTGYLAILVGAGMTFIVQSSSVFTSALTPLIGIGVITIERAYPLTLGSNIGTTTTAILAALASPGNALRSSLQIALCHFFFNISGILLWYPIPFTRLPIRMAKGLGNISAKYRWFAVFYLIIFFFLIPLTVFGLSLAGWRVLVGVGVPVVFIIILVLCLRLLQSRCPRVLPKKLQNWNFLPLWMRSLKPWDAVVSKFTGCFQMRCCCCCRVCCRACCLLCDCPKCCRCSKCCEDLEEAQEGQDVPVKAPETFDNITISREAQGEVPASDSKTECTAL
Test: cell-based or functional assay
property label: ADCC reporter EC50 (nM)

1. xi30H9B8F9 hIgG1 (antibody, V domains shown, chimeric, hIgG1) VH: QVQLQQPGAELVKPGASVKMSCKTSGYTFTTNNMHWVKQTPGQGLEWIGAIYPGNGATAYNQKFKGKATLTADKSSSTAYMQLSSLTSEASAVYYCARGMYGHGAMDYWGQGTSVIVSS VL: DIVMTQSHKFMSRSVGDRVRITCKASQDVGTAVAWYQQKPGQSPKLLIYWATTRHSGVPDRFTGSGSGTDFIFTISNVQSEDLADYFCQQYSSNPLTFGAGTKLELK
3.1
2. xi28G3C6B9 hIgG1 (antibody, V domains shown, chimeric, hIgG1) VH: QVQLQQPGAEVVKPGASVKMSCKASGYTFTSYIIHWVKQAPGQGLEWIGAIYPGNGDTSYSQRFKGKAKLTADKSSSTAYMQLNSLTSEDSVVYYCARGNNYGSPAWFGYWGQGTLVTVSA VL: DIVLTQSPVTLSVTPGDRVSLSCRASQSIGNFLYWYQQKSHESPRLLIKYASQSMSGIPSRFSGSGSGTDFTLSISRVETEDFGMYFCQQSNSWPVTFGAGTKLELK
6.4
3. xi94E9B12 hIgG1 (antibody, V domains shown, chimeric, hIgG1) VH: QVQLQQPGAELVKPGASVKMSCKASGYTFTSYNMQWVKQTYGQGLEWIGAISPGSGETSYNQNFKVKATLTADKISSTAYMQLSSLTSEDSAVYYCARAARAEGWFAYWGQGTLVTVSA VL: DIVMTQSHKFMSTSVGDRVSITCKASQDVGHAVVWYQQKPGQFPKLLIYWASTRHAGVPDRFTGSGSGTDFTLTISNVQSEDLADYFCQQFRSIPLTFGSGTKLEIK
3.3
